The compounds listed here are annotated with their residual activity.
Target: Serine/threonine-protein kinase pim-2 (Homo sapiens) (UniProt Q9P1W9)
Sequence (Q9P1W9 whole entry, looked up): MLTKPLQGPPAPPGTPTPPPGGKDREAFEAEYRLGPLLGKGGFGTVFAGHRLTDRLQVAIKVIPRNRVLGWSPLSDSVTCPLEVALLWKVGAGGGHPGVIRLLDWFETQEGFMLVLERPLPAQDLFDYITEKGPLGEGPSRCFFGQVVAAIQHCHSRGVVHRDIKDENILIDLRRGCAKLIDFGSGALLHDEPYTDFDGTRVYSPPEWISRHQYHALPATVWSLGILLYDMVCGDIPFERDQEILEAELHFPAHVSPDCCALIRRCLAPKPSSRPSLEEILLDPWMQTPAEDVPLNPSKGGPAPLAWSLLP
Conditions: at 1 µM

Recorded residual activity, per entry:
- smiles_entry: "O=C1Cc2c([nH]c3ccc([N+](=O)[O-])cc23)-c2ccccc2N1"
  result: "119%"
- smiles_entry: "CN([C@@H](Cc1ccc(OS(=O)(=O)c2cccc3cnccc23)cc1)C(=O)N1CCN(c2ccccc2)CC1)S(=O)(=O)c1cccc2cnccc12"
  result: "98%"
- smiles_entry: "Nc1n[nH]c2nc3ccccc3nc12"
  result: "130%"
- smiles_entry: "COc1cc2nccc(Oc3ccc(NC(=S)NC(=O)c4ccccc4C)cc3)c2cc1OC"
  result: "97%"
- smiles_entry: "O=c1cc(N2CCNCC2)oc2c(-c3ccccc3)cccc12"
  result: "100%"
- smiles_entry: "O=C(Nc1nc2ccccc2n1CCN1CCOCC1)c1cccc([N+](=O)[O-])c1"
  result: "100%"
- smiles_entry: "O=C1NC(=O)c2c1c1c3ccccc3[nH]c1n1cncc21"
  result: "5%"

Alright, here's another compound for you.
Exercise: Give residual activity for NC(=O)Nc1sc(-c2ccc(F)cc2)cc1C(N)=O tested on Serine/threonine-protein kinase pim-2 (Homo sapiens) (UniProt Q9P1W9).
Key: 93%

* * *

Some compounds, each annotated with its measured residual activity.
Molecular target: Insulin receptor-related protein (Homo sapiens)
Details: at 1 µM
Note: unit % is implicit; provide only the numeric part.

Exercise: Give a short answer stating reported residual activity for COc1cc2nccc(Oc3ccc(NC(=O)Nc4cc(C)on4)c(Cl)c3)c2cc1OC .
Key: 102

Exercise: Find the measured residual activity of c1ccc(-c2cnc(Nc3ccc(OCCN4CCCC4)cc3)s2)cc1 and report it.
Key: 135

Exercise: Identify measured residual activity associated with O=C(NC(NC(=S)Nc1ccc(F)c([N+](=O)[O-])c1)C(Cl)(Cl)Cl)C(c1ccccc1)c1ccccc1 (stereo not given)
Key: 126

Exercise: // Input: Oc1cccc(-c2nc(N3CCOCC3)c3oc4ncccc4c3n2)c1 . Output its residual activity only.
Key: 128

Exercise: Return reported residual activity. Input compound: COc1cc2nccc(Oc3ccc(NC(=S)NC(=O)c4ccccc4C)cc3)c2cc1OC
Key: 121

Exercise: Look up and report measured residual activity for this entry: NC(=O)Nc1sc(-c2ccc(F)cc2)cc1C(N)=O
Key: 69

Exercise: Determine its reported residual activity: NCCNc1ncc(C(N)=O)c(Nc2cccc(C(F)(F)F)c2)n1
Key: 142

* * *

Molecular target: Cyclin-dependent kinase 5/CDK5 activator 1 (Homo sapiens) (UniProt Q00535+Q15078)
Sequence (Q00535 whole entry): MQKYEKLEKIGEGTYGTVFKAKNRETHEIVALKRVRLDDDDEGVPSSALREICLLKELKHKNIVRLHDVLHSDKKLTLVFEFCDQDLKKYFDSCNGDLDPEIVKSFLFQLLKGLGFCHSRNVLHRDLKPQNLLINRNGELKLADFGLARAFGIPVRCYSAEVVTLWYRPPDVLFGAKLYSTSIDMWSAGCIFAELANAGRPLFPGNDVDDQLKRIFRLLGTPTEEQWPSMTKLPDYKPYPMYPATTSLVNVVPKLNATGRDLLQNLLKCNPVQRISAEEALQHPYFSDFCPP
Sequence (Q15078 99-307 partner limits assumed): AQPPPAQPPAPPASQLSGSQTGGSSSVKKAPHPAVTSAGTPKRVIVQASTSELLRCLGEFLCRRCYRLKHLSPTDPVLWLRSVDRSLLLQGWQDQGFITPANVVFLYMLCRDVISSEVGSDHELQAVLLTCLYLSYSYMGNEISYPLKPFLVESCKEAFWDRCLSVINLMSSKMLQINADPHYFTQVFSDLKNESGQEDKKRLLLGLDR
Settings: at 1 µM
Each entry falls in a class defined on residual activity; the bands are band 1 = under 80%, band 2 = from 80% up to 90%, band 3 = 90% and over

- smiles_entry: "O=C1C(Cl)=C(N2C(=O)CCC2=O)C(=O)c2ccccc21"
  target_under_test: "Cyclin-dependent kinase 5/CDK5 activator 1 (Homo sapiens) (UniProt Q00535+Q15078)"
  class: "band 3"
- smiles_entry: "CCN(CC)CCNC(=O)c1c(C)[nH]c(/C=C2\\C(=O)Nc3ccc(Cl)cc32)c1C"
  target_under_test: "Cyclin-dependent kinase 5/CDK5 activator 1 (Homo sapiens) (UniProt Q00535+Q15078)"
  class: "band 1"
- smiles_entry: "O=c1cc(N2CCNCC2)oc2c(-c3ccccc3)cccc12"
  target_under_test: "Cyclin-dependent kinase 5/CDK5 activator 1 (Homo sapiens) (UniProt Q00535+Q15078)"
  class: "band 3"
- smiles_entry: "NC(=O)c1ccc(-c2nc(-c3ccc4c(c3)OCCO4)c(-c3ccccn3)[nH]2)cc1"
  target_under_test: "Cyclin-dependent kinase 5/CDK5 activator 1 (Homo sapiens) (UniProt Q00535+Q15078)"
  class: "band 3"

Exercise: Class (by measured residual activity) for CCCCc1c(-c2ccc(OC)cc2)[nH]c2nccnc12
Key: band 1

Exercise: Which category fits this record: COc1ccc(-c2cnc3c(-c4ccsc4)cnn3c2)cc1
Key: band 2

Exercise: Given CC(C)(C)n1nc(Cc2cccc3ccccc23)c2c(N)ncnc21 , name the class its residual activity places it in.
Key: band 2

Exercise: Class (by measured residual activity) for Cn1sc(=O)n(Cc2ccccc2)c1=O
Key: band 3

* * *

Target: Rho-associated protein kinase 2 (Homo sapiens)
Conditions: at 10 µM
assay_readout: residual activity (%)
Lab book: enter the figure in %, no units written.

Sample records with residual activity:
- molecule: "CC(C)(C)n1nc(Cc2cccc3ccccc23)c2c(N)ncnc21"
  target_under_test: "Rho-associated protein kinase 2 (Homo sapiens)"
  readout_number: 77
- molecule: "COc1ccc(COc2ccc(Cc3cnc(N)nc3N)cc2OC)cc1"
  target_under_test: "Rho-associated protein kinase 2 (Homo sapiens)"
  readout_number: 78
- molecule: "CSc1nc(-c2ccc(F)cc2)c(-c2ccnc(NC(C)c3ccccc3)c2)[nH]1 (stereo unspecified)"
  target_under_test: "Rho-associated protein kinase 2 (Homo sapiens)"
  readout_number: 96
- molecule: "CC(C)[C@H](CO)Nc1nc(Nc2cc(N)cc(Cl)c2)c2ncn(C(C)C)c2n1"
  target_under_test: "Rho-associated protein kinase 2 (Homo sapiens)"
  readout_number: 52
- molecule: "Nc1ncnc2[nH]nc(Nc3ccc(F)cc3)c12"
  target_under_test: "Rho-associated protein kinase 2 (Homo sapiens)"
  readout_number: 91

Proceeding to the next molecule to report its residual activity.
Exercise: Provide measured residual activity value, entry: CC(C)N(CCC(=O)c1ccc2ccccc2c1)Cc1ccccc1
Key: 82

* * *

Molecular target: Cyclin-dependent kinase 2/cyclin E (Homo sapiens) (UniProt P24864+P24941+O96020)
Conditions: at 1 µM
assay_readout: residual activity (%)
Write it as a number; the unit % goes unstated.

- molecule: "CSc1nc(-c2ccc(F)cc2)c(-c2ccnc(NC(C)c3ccccc3)c2)[nH]1 (configuration not stated)"
  target_under_test: "Cyclin-dependent kinase 2/cyclin E (Homo sapiens) (UniProt P24864+P24941+O96020)"
  residual activity / %: 96

Exercise: Give recorded residual activity. O=C1NC(=O)C(c2cn(CCCn3ccnc3)c3ccccc23)=C1Nc1ccccc1
Key: 76

Exercise: Respond only with residual activity recorded for CC(C)(C)n1nc(Cc2cccc3ccccc23)c2c(N)ncnc21
Key: 107

Exercise: Provide one value: measured residual activity of O=C1Nc2ccccc2/C1=C\c1c(Cl)[nH]c2ccccc12
Key: 82

Exercise: Output residual activity of N#Cc1c(NC(=O)c2cccc3ccccc23)sc2c1CCCC2
Key: 96

Exercise: State its residual activity for this molecule: O=C(c1cc2cc(O)ccc2[nH]1)c1cc2cc(O)ccc2[nH]1
Key: 50

Exercise: Give the reported value of residual activity for this record: CN(C)S(=O)(=O)c1ccc2c(c1)/C(=C/c1cc3c([nH]1)CCCC3)C(=O)N2
Key: 96

Exercise: Tell me its residual activity given Nc1ncnc2c1c(-c1ccc(Oc3ccccc3)cc1)cn2C1CCCC1 as the entry.
Key: 94

Exercise: Provide only the value of recorded residual activity for CCOC(=O)c1c(C)[nH]c(/C=C2\C(=O)Nc3ccccc32)c1C
Key: 99

Exercise: Please report the measured residual activity for COc1cc2c(cc1OC)-c1n[nH]c(Nc3cccc(F)c3)c1C2
Key: 98

Exercise: Please give measured residual activity of the following entry: O=C1NC(=O)c2c1c1c3ccccc3[nH]c1n1cncc21
Key: 58

Exercise: In one line, give reported residual activity of the entry Nc1ncnc2[nH]nc(Nc3ccc(F)cc3)c12 .
Key: 91

Exercise: Consider the molecule O=C1NC(=O)C(c2cn(CCCO)c3ncccc23)=C1c1cnccn1 and give its recorded residual activity.
Key: 87

Exercise: Provide residual activity value for the following molecule: COc1cc2ncnc(Nc3cccc(Cl)c3)c2cc1OC
Key: 109

Exercise: Identify measured residual activity corresponding to Nc1ncnc2c1cnn2-c1ccccc1
Key: 98

Exercise: Quote residual activity reported for CCCC(=O)Oc1ccc2[nH]c(C(=O)c3cc4ccccc4[nH]3)cc2c1 please.
Key: 105

Exercise: Answer with the recorded residual activity of COc1ccc(-c2cnc3c(-c4ccsc4)cnn3c2)cc1 only.
Key: 99

* * *

Molecular target: Tyrosine-protein kinase SYK (Homo sapiens)
Details: at 10 µM
Note that class boundaries on residual activity are range A = under 60%, range B = from 60% up to 80%, range C = 80% and over

- compound: "O=C1Cc2c([nH]c3ccc(Br)cc23)-c2ccccc2N1"
  class: "range A"
- compound: "O=C1Nc2ccc(Cl)cc2/C1=C/c1cc(Cl)c(O)c(Cl)c1"
  class: "range A"
- compound: "CC(C)[C@H](CO)Nc1nc(Nc2cc(N)cc(Cl)c2)c2ncn(C(C)C)c2n1"
  class: "range B"
- compound: "O=C(c1ccccc1)c1ccc(N2CCOCC2)cc1O"
  class: "range C"
- compound: "CN(C)S(=O)(=O)c1ccc2c(c1)/C(=C/c1cc3c([nH]1)CCCC3)C(=O)N2"
  class: "range C"

Exercise: Lab note: sort CC(C)(C)n1nc(Cc2cccc3ccccc23)c2c(N)ncnc21 into the matching residual activity band.
Key: range B

Exercise: Class? Entry: O=C(c1cc2cc(O)ccc2[nH]1)c1cc2cc(O)ccc2[nH]1
Key: range A

Exercise: # classify by residual activity band: CSc1nc(-c2ccc(F)cc2)c(-c2ccnc(NC(C)c3ccccc3)c2)[nH]1 (stereo not given)
Key: range B

Exercise: Which residual activity category applies to Cn1c2ccccc2c2c3c(c4c5ccccc5n(CCC#N)c4c21)CNC3=O here?
Key: range A

Exercise: Assign a bin to CC(C)c1nn(-c2c(Cl)cccc2Cl)c2nc(Cc3ccc(OCCO)cc3)[nH]c(=O)c12
Key: range C

Data provenance is ChEMBL document CHEMBL2218924.
